# Tested on: Klebsiella aerogenes
# Method notes: Inhibition of multidrug resistance efflux pump in Enterobacter aerogenes EA289 assessed as dose required to restore 2 ug/ml doxycycline-induced inhibition of visible growth after 18 hrs by standard broth dilution method
Reported values of Activity for individual entries

INSERT INTO measurements (compound_string, property_measured, meas_value) VALUES
  ('COc1c(Br)cc(/C=C/C(=O)NCCCOCCCCOCCCN)cc1Br', 'Activity', '> 100 µM');

Which Activity is listed for `COc1c(Br)cc(/C=C/C(=O)NCCCN2CCCC2)cc1Br` ? > 100 µM

Given `COc1c(Br)cc(/C=C/C(=O)NCCCCNCCCN)cc1Br.Cl.Cl` , state its recorded Activity. 6.25 µM

Dear colleague, I am looking for the recorded Activity of the following compound: `COc1c(Br)cc(/C=C/C(=O)NCCCN)cc1Br` > 100 µM

Could you tell me which Activity is on file for `COc1c(Br)cc(/C=C/C(=O)NCCN)cc1Br` ? > 100 µM

Would you mind telling me what Activity value was observed for `COc1c(Br)cc(/C=C/C(=O)NCCCN2CCN(CCCN)CC2)cc1Br` ? > 100 µM

---

# Test system: Pseudomonas aeruginosa PAO1
# Method notes: Inhibition of multidrug resistance efflux pump in Pseudomonas aeruginosa PAO1 assessed as dose required to restore 2 ug/ml doxycycline-induced inhibition of visible growth after 18 hrs by standard broth dilution method
Mark 1 (yes) for reported Activity of 10 µM or greater; mark 0 (no) for anything smaller.

INSERT INTO measurements (compound_string, class_name) VALUES
  ('COc1c(Br)cc(/C=C/C(=O)NCCCOCCCCOCCCN)cc1Br', '1 (yes)'),
  ('COc1c(Br)cc(/C=C/C(=O)NCCNCCNCCNCCN)cc1Br', '0 (no)'),
  ('COc1c(Br)cc(/C=C/C(=O)NCCNCCNCCN)cc1Br', '1 (yes)'),
  ('COc1c(Br)cc(/C=C/C(=O)NCCCN(CCCN)CCCN)cc1Br', '0 (no)'),
  ('COc1c(Br)cc(/C=C/C(=O)NCCN)cc1Br', '1 (yes)'),
  ('COc1c(Br)cc(/C=C/C(=O)NCCCN2CCCC2)cc1Br', '1 (yes)'),
  ('COc1c(Br)cc(/C=C/C(=O)NCCCCNCCCN)cc1Br.Cl.Cl', '0 (no)'),
  ('COc1c(Br)cc(/C=C/C(=O)NCCCN)cc1Br', '1 (yes)');

Textbook exercise: given the entry `COc1c(Br)cc(/C=C/C(=O)NCCCNCCCCNCCCN)cc1Br` , state whether its Activity is greater than or equal to 10 µM. 1 (yes)

Evaluate `COc1c(Br)cc(/C=C/C(=O)NCCCNCCCCN)cc1Br.Cl.Cl` : Activity at minimum 10 µM? 1 (yes)

Can `COc1c(Br)cc(/C=C/C(=O)NCCCCN)cc1Br` be said to have Activity at or above 10 µM? 1 (yes)

---

# Test system: Pseudomonas aeruginosa PAO1
# Method notes: Inhibition of multidrug resistance efflux pump in Pseudomonas aeruginosa PAO1 assessed as dose required to restore 2 ug/ml cefepime-induced inhibition of visible growth after 18 hrs by standard broth dilution method
# label = Satisfied if Activity < 3 µM else Not satisfied

Reference set, count: 4
INSERT INTO measurements (compound_string, class_name) VALUES
  ('COc1c(Br)cc(/C=C/C(=O)NCCCNCCCCN)cc1Br.Cl.Cl', 'Satisfied'),
  ('COc1c(Br)cc(/C=C/C(=O)NCCCN(CCCN)CCCN)cc1Br', 'Satisfied'),
  ('COc1c(Br)cc(/C=C/C(=O)NCCCNCCCNCCCNC(=O)/C=C/c2cc(Br)c(OC)c(Br)c2)cc1Br', 'Satisfied'),
  ('COc1c(Br)cc(/C=C/C(=O)NCCCCNCCCN)cc1Br.Cl.Cl', 'Not satisfied');

Next:
Consider the molecule `COc1c(Br)cc(/C=C/C(=O)NCCNCCNCCNCCN)cc1Br` . Is its Activity strictly less than 3 µM? Not satisfied

---

# Tested on: Pseudomonas aeruginosa PAO1
# Method notes: Inhibition of multidrug resistance efflux pump in Pseudomonas aeruginosa PAO1 assessed as dose required to restore 2 ug/ml doxycycline-induced inhibition of visible growth after 18 hrs by standard broth dilution method
Items are presented alongside their recorded Activity.

INSERT INTO measurements (compound_string, property_measured, meas_value) VALUES
  ('COc1c(Br)cc(/C=C/C(=O)NCCCCCN)cc1Br', 'Activity', '> 100 µM');

Return reported Activity; argument: `COc1c(Br)cc(/C=C/C(=O)NCCCNCCCNCCCNC(=O)/C=C/c2cc(Br)c(OC)c(Br)c2)cc1Br` 3.12 µM

Query: Activity; subject: `COc1c(Br)cc(/C=C/C(=O)NCCCN2CCOCC2)cc1Br` > 100 µM

---

Reported Activity by item:
# Test system: Klebsiella aerogenes
# Method notes: Inhibition of multidrug resistance efflux pump in Enterobacter aerogenes EA289 assessed as dose required to restore 2 ug/ml doxycycline-induced inhibition of visible growth after 18 hrs by standard broth dilution method
Give just the number in µM; leave the unit off.

Below are worked cases with known answers.
INSERT INTO measurements (compound_string, property_measured, meas_value) VALUES
  ('COc1c(Br)cc(/C=C/C(=O)NCCCN(CCCN)CCCN)cc1Br', 'Activity', 6.25),
  ('COc1c(Br)cc(/C=C/C(=O)NCCCNCCCCN)cc1Br.Cl.Cl', 'Activity', 25),
  ('COc1c(Br)cc(/C=C/C(=O)NCCNCCNCCNCCN)cc1Br', 'Activity', 12.5);

Sample `COc1c(Br)cc(/C=C/C(=O)NCCCNCCCNCCCNC(=O)/C=C/c2cc(Br)c(OC)c(Br)c2)cc1Br` — what was its Activity? 12.5
